// provenance: the supplement of paper PMC12494721

Listed molecules paired with reported fold change of 2-Phenylethylamine concentration
test system: Ruminococcus gnavus DSM 108212; assay: fold change of 2-Phenylethylamine concentration vs plate DMSO controls (fold change (ratio)); higher = more amine produced, active = hit call of the paper (significant change in both replicates, either direction); settings: incubation time: 27 h, anaerobic, 37 °C
Structures can show the parent of a compound that is named as a salt.
Recorded metric: fold change of 2-Phenylethylamine concentration

Molecule | Target under test | Reported result
COc1cc(C(=O)N2CCOCC2)cc(OC)c1OC [Trimetozine] (20 µM) | Ruminococcus gnavus DSM 108212 | 1.04
CC(c1cc2ccccc2s1)N(O)C(N)=O (stereo not drawn) [Zileuton] (20 µM) | Ruminococcus gnavus DSM 108212 | 1.07
CN(c1nccc(=O)[nH]1)C1CCN(c2nc3ccccc3n2Cc2ccc(F)cc2)CC1 [Mizolastine] (20 µM) | Ruminococcus gnavus DSM 108212 | 0.967
CNS(=O)(=O)Cc1ccc2[nH]cc(CCN(C)C)c2c1 [Sumatriptan succinate] (20 µM) | Ruminococcus gnavus DSM 108212 | 1.06
Cc1cc(CC(=O)O)n(C)c1C(=O)c1ccc(Cl)cc1 [Zomepirac sodium salt] (20 µM) | Ruminococcus gnavus DSM 108212 | 0.968
NS(=O)(=O)c1cc2c(cc1Cl)N=CNS2(=O)=O [Chlorothiazide] (20 µM) | Ruminococcus gnavus DSM 108212 | 1.01
O=[N+]([O-])c1ccc2c(c1)Cc1ccccc1-2 [2-Nitrofluorene] (20 µM) | Ruminococcus gnavus DSM 108212 | 1.02
C[C@H](CC[C@@H](O[C@@H]1O[C@H](CO[C@@H]2O[C@H](CO)[C@@H](O)[C@H](O)[C@H]2O)[C@@H](O)[C@H](O)[C@H]1O[C@@H]1O[C@H](CO)[C@@H](O)[C@H](O)[C@H]1O)C(C)(C)O)[C@H]1CC[C@@]2(C)[C@@H]3CC=C4[C@@H](CC[C@H](O[C@@H]5O[C@H](CO[C@@H]6O[C@H](CO)[C@@H](O)[C@H](O)[C@H]6O)[C@@H](O)[C@H](O)[C@H]5O)C4(C)C)[C@]3(C)[C@H](O)C[C@]12C [Mogroside V] (50 µM) | Ruminococcus gnavus DSM 108212 | 0.964
CCN(CC)C(=O)C1(c2ccccc2)CC1CN (stereo not drawn) [Milnacipran hydrochloride] (20 µM) | Ruminococcus gnavus DSM 108212 | 1.12
CC(C)Cc1ccc(C(C)C(=O)OCc2ccccn2)cc1 (stereo not drawn) [Ibuprofen Piconol] (20 µM) | Ruminococcus gnavus DSM 108212 | 1.15
CCCCNC(=O)NS(=O)(=O)c1ccc(C)cc1 [Tolbutamide] (20 µM) | Ruminococcus gnavus DSM 108212 | 1.04
CCN(CC)CCNC(=O)c1ccc(N)cc1 [Procainamide hydrochloride] (20 µM) | Ruminococcus gnavus DSM 108212 | 1.05
CCN(CC)C(=O)/C(C#N)=C/c1cc(O)c(O)c([N+](=O)[O-])c1 [Entacapone] (20 µM) | Ruminococcus gnavus DSM 108212 | 0.896
C[C@H](CCC(=O)O)[C@H]1CC[C@H]2[C@@H]3[C@H](O)C[C@@H]4C[C@H](O)CC[C@]4(C)[C@H]3CC[C@]12C [Chenodiol] (20 µM) | Ruminococcus gnavus DSM 108212 | 0.994
CC(=O)N[C@@H](CC(=O)O)C(=O)N[C@@H](CCC(=O)O)C(=O)O [Spaglumic acid] (20 µM) | Ruminococcus gnavus DSM 108212 | 1.02
CC(=O)[C@@]1(O)CC[C@H]2[C@@H]3C[C@H](C)C4=CC(=O)C=C[C@]4(C)[C@@]3(F)[C@@H](O)C[C@@]21C [Fluorometholone] (20 µM) | Ruminococcus gnavus DSM 108212 | 1.14
Cn1nnc2c(C(N)=O)ncn2c1=O [Temozolomide] (20 µM) | Ruminococcus gnavus DSM 108212 | 1.01
CC1(C)S[C@@H]2[C@H](NC(=O)[C@H](N)c3ccccc3)C(=O)N2[C@H]1C(=O)O [Ampicillin trihydrate] (20 µM) | Ruminococcus gnavus DSM 108212 | 0.0431
O=C1CCc2ccc(OCCCCN3CCN(c4cccc(Cl)c4Cl)CC3)cc2N1 [Aripiprazole] (20 µM) | Ruminococcus gnavus DSM 108212 | 0.811
O=C(O)COCCN1CCN(C(c2ccccc2)c2ccc(Cl)cc2)CC1 (stereo not drawn) [Cetirizine dihydrochloride] (20 µM) | Ruminococcus gnavus DSM 108212 | 1.03
Cc1cc(N)c2ccccc2[n+]1CCCCCCCCCC[n+]1c(C)cc(N)c2ccccc21 [Dequalinium dichloride] (20 µM) | Ruminococcus gnavus DSM 108212 | 0.921
CCOC(=O)[C@H](CCc1ccccc1)N[C@@H](C)C(=O)N(CC(=O)O)C1Cc2ccccc2C1 [Delapril Hydrochloride] (20 µM) | Ruminococcus gnavus DSM 108212 | 0.905
CN[C@@H]1[C@@H](O)[C@@H](O[C@@H]2[C@@H](O)[C@H](O[C@H]3OC(CN)=CC[C@H]3N)[C@@H](N)C[C@H]2N)OC[C@]1(C)O [Sisomicin sulfate] (20 µM) | Ruminococcus gnavus DSM 108212 | 1.04
CC(CN1c2ccccc2Sc2ccccc21)N(C)C (stereo not drawn) [Promethazine hydrochloride] (20 µM) | Ruminococcus gnavus DSM 108212 | 1.06
Nc1nc(Cl)nc2c1ncn2[C@H]1C[C@H](O)[C@@H](CO)O1 [Cladribine] (20 µM) | Ruminococcus gnavus DSM 108212 | 0.957
Cc1c(NC(C)C)c(=O)n(-c2ccccc2)n1C [Isopyrin hydrochloride] (20 µM) | Ruminococcus gnavus DSM 108212 | 1.32
CNC(=O)OCc1cccc(COC(=O)NC)n1 [Pyricarbate] (20 µM) | Ruminococcus gnavus DSM 108212 | 1.06
CC(C)[N+](C)(CCOC(=O)C1c2ccccc2Oc2ccccc21)C(C)C [Propantheline bromide] (20 µM) | Ruminococcus gnavus DSM 108212 | 0.963
